I'd be grateful if you could share measured TGI for these entries.
Test system: HCT-116 colon
Assay info: NCI tumour cell line growth inhibition, 48 h

Observe how each entry below is paired with its result.
[
  {
    "Compound": "COc1ccc(-c2cc(Cc3cccs3)c(=O)[nH]n2)cc1",
    "TGI": "> 100 µM"
  },
  {
    "Compound": "Cn1c(=O)c2c(nc3n2CC(=O)N3CCCCl)n(C)c1=O",
    "TGI": "> 100 µM"
  },
  {
    "Compound": "CCC(=O)C12OC3OC(C)(C)OC3C1OC(C)(C)O2 (stereo unspecified)",
    "TGI": "> 100 µM"
  },
  {
    "Compound": "Fc1ccc(/C=N/n2c(-c3ccc(F)c(Cl)c3)nn(CNc3ccccc3C(F)(F)F)c2=S)cc1",
    "TGI": "> 100 µM"
  },
  {
    "Compound": "Cc1ccc(NC(Nc2ccc(C)cc2C)=C(/C=C(\\Cl)[N+](=O)[O-])[N+](=O)[O-])c(C)c1",
    "TGI": "3.14 µM"
  },
  {
    "Compound": "CN(C)CCCn1c(=O)c2ccccc2c2ccccc21",
    "TGI": "> 100 µM"
  },
  {
    "Compound": "CC1=C2[C@@H](CC1)[C@]1(C)O[C@@](c3ccccc3)(C[C@H]1OC(=O)CO)[C@H]2OC(=O)/C=C/c1ccccc1",
    "TGI": "31.6 µM"
  },
  {
    "Compound": "O=c1[nH]cc(COCCCO)c(=O)[nH]1",
    "TGI": "> 100 µM"
  },
  {
    "Compound": "C=CC1(NC(=O)c2ccccc2)CCC(C(C)(C)C)CC1 (stereo unspecified)",
    "TGI": "55.1 µM"
  },
  {
    "Compound": "CN(N=O)C(=O)ON1C(=O)CCC1=O",
    "TGI": "> 100 µM"
  }
]

Okay, now this compound:
Task item: For the compound CC(C)(C)OC(=O)N/N=C(/N)Cc1ccc(Cl)cc1 , give its measured TGI value.
Reply: > 100 µM
